Test system: K-562 leukemia
test protocol: NCI tumour cell line growth inhibition, 48 h; in the data active = GI50 below about 0.43 µM; inactive = the rest
# valid calls are y for active, n for inactive; nothing else

Tell me the recorded outcome of this test for CCN1C(=O)N(CC)C2C1NN=c1s/c(=C\c3ccc([N+](=O)[O-])cc3)c(=O)n12 (stereo not drawn) .
y

Hello, I am checking results. What call was entered for CC(=O)[CH-]C(=O)c1ccccc1.CC(=O)[CH-]C(=O)c1ccccc1.[O-]Cc1cccs1.[O-]Cc1cccs1.[Ti+4] ?
n

Can you look up the reported call for Nc1nccc(C#Cc2cncnc2Nc2ccc(OCc3cccc(F)c3)c(Cl)c2)n1 for me?
n

----------
Give measured TGI for each item. Keep answers brief.
Test system: A549 NSCLC
test protocol: NCI tumour cell line growth inhibition, 48 h
A number alone suffices; assume µM.

Bench note, A549 NSCLC: O=[N+]([O-])c1ccc(N=Nc2c(O)[nH]c3ccc(Br)cc23)c([N+](=O)[O-])c1 , TGI reads 20.4

The measured TGI that COc1ccc(C2=NN(c3ccc(S(N)(=O)=O)cc3)C(c3ccc(Cl)cc3)C2)c(O)c1 (stereo not drawn) showed for A549 NSCLC is 35.1

----------
Tested on: OVCAR-3 ovarian
test protocol: NCI tumour cell line growth inhibition, 48 h
assay metric: TGI

Entry under test: COc1ccc(Nc2nc3c(N)cc(C(F)(F)F)cc3nc2-c2ccccc2)cc1 . Its TGI was > 100 µM

// TGI lookup, compound = CC(=O)NC1C(OCc2ccccc2)OC(CO)C(O)C1OC(C)C(=O)NC(C(=O)NC(CCC(=O)Nc1ccc2c(c1)CN1C(=O)c3ccccc3C1=N2)C(N)=O)C(C)C (stereo unspecified) , result: > 100 µM

TGI recorded for this compound, C/C(=N\NC(=S)Nc1ccccc1)c1ccccn1 , is 0.0538 µM

Sample Cc1ccc2c(c1)C(=O)c1ccc(C)nc1C2=O ; TGI observed: > 100 µM

// TGI lookup, compound = CC(=O)OCC1OC(n2cnc3c(I)nc(I)nc32)C(OC(C)=O)C1OC(C)=O (stereo unspecified) , result: 20.1 µM

get_value(item= CCN(CC)c1ccc(/C=C/C2=[N+](C)c3ccccc3C2(C)C)cc1 , readout=TGI) returns 13.2 µM

Record summary for CC(C)=CCC/C(C)=C/CC/C(C)=C/C(O)c1ccccc1 (stereo unspecified) : reported TGI = 36.3 µM

Reported TGI ( Cc1cc(C)c2c(c1C)CN1CN2Cc2c(C)c(C)cc(C)c21 ) = > 100 µM

Record c1cc(-c2ccc(Oc3ccc(-c4ccncc4)cc3)cc2)ccn1 . Reported TGI: > 61.8 µM

The compound listed as N#CCCN(CCC#N)c1ccc(/C=C2\N=C(c3ccccc3)N(NC(=O)c3ccncc3)C2=O)cc1 shows TGI equal to > 100 µM

TGI reported for this compound Nc1nc(SCC(=O)c2ccccc2)nc2nc3c(c(-c4ccccc4)c12)CCCC3 : 94.5 µM

Lab note: measured TGI of NC(N)=NCCCS(=O)(=O)Nc1ccc(Nc2c3ccccc3nc3cc([N+](=O)[O-])ccc23)cc1 was 66.4 µM

Consider Clc1ccc(C2=NN(c3ccccc3)C3c4cc(Br)ccc4OCC23)cc1 (stereo unspecified) . Its measured TGI is > 100 µM

Entry O=Cc1cc(O)ccc1Br — recorded TGI = > 91.8 µM

Looking up CC1C2CC(CC2=O)C1(C)C (stereo unspecified) , I see its TGI listed as > 100 µM

The compound listed as O=C1c2cccnc2-c2nc(-c3ccccc3)cc3c2c1nc1ccccc13 has a reported TGI of > 100 µM
